pIC50: −log10 of the molar value.
Measured pIC50 (UniProt:P00734)
OBSERVATION TYPE: pIC50

{"columns": ["SMILES INPUT", "pIC50"],
 "data": [
  ["N=C(N)c1ccc2ccc(CN3C(=O)COc4cc(NS(=O)(=O)c5ccc6cc(Br)ccc6c5)ccc43)cc2c1", 4.08],
  ["CC(=N)N1CCC(Oc2ccc3c(c2)OCC(=O)N3Cc2cc(-c3cccc(C(=N)N)c3)no2)CC1", 3.60]
]}

(a) CC(=N)N1CCC(Oc2ccc3c(c2)N(Cc2ccc4ccc(C(=N)N)cc4c2)C(=O)CO3)CC1
(b) N=C(N)c1cccc(-c2cccc(CN3C(=O)COc4ccc(-c5ccccc5S(N)(=O)=O)cc43)c2)c1
Of the pair a and b , name the member with the lesser recorded pIC50. Reply briefly: the label of your chosen item.
a

---

Entries below carry reported IC50 on factor Xa (Homo sapiens, UniProt P00742).
OBSERVATION TYPE: IC50 (µM)

{"columns": ["COMPOUND", "READOUT UNIT", "IC50"],
 "data": [
  ["CC(=N)N1CCC(Oc2ccc3c(c2)OCC(=O)N3Cc2cc(-c3cccc(C(=N)N)c3)no2)CC1 [Cmpd 27]", "µM", 0.0524],
  ["N=C(N)c1ccc2ccc(CN3C(=O)COc4cc(NS(=O)(=O)c5ccccc5)ccc43)cc2c1 [Cmpd 32]", "µM", 21.9]
]}

(A) N=C(N)c1cccc(-c2cccc(CN3C(=O)COc4ccc(-c5ccccc5S(N)(=O)=O)cc43)c2)c1 [Cmpd 37]
(B) N=C(N)c1ccc2ccc(CN3C(=O)COc4cc(NS(=O)(=O)c5cccc6ncccc56)ccc43)cc2c1 [Cmpd 34]
(C) COc1ccc(S(=O)(=O)Nc2ccc3c(c2)OCC(=O)N3Cc2ccc3ccc(C(=N)N)cc3c2)cc1 [Cmpd 33]
Hey, quick one: sort these by IC50, largest value first please. Your answer should be the labels, listed in the requested order.
C, B, A
(C: 38.2 µM, B: 19.5 µM, A: 0.89 µM)

---

Target: prothrombinase complex (Homo sapiens, UniProt P00742)
Sequence (P00742 41-179 limits assumed): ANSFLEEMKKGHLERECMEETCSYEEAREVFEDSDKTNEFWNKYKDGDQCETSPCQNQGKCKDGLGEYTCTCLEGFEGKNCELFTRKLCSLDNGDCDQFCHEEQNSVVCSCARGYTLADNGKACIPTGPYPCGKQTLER
Sequence (P00742 235-488 limits assumed): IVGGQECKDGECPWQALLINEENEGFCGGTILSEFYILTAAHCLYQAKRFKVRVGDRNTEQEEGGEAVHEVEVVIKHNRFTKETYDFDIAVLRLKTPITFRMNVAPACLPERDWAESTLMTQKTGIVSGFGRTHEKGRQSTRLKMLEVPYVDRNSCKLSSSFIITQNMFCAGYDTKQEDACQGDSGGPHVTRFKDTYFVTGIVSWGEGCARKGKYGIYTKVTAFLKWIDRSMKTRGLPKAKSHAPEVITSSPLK
Sequence (P12259 29-737 partner limits assumed): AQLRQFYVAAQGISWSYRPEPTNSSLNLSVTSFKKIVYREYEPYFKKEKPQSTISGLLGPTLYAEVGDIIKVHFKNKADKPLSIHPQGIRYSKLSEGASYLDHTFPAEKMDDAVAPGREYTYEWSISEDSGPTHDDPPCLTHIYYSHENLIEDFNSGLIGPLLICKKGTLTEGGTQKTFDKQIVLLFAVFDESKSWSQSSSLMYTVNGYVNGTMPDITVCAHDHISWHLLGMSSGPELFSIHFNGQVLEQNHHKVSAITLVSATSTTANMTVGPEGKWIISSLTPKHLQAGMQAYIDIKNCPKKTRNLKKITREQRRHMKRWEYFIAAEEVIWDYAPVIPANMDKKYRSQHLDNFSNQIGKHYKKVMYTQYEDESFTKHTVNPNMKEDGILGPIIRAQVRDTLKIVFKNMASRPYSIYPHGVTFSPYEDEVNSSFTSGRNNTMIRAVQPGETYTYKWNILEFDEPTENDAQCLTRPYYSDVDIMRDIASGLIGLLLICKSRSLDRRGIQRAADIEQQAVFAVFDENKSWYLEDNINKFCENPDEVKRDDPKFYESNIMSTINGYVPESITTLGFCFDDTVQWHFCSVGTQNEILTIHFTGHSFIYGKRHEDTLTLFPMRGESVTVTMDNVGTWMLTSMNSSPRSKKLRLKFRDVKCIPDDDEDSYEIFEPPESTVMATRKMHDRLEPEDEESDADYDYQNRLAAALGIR
Sequence (P12259 1574-2224 partner limits assumed): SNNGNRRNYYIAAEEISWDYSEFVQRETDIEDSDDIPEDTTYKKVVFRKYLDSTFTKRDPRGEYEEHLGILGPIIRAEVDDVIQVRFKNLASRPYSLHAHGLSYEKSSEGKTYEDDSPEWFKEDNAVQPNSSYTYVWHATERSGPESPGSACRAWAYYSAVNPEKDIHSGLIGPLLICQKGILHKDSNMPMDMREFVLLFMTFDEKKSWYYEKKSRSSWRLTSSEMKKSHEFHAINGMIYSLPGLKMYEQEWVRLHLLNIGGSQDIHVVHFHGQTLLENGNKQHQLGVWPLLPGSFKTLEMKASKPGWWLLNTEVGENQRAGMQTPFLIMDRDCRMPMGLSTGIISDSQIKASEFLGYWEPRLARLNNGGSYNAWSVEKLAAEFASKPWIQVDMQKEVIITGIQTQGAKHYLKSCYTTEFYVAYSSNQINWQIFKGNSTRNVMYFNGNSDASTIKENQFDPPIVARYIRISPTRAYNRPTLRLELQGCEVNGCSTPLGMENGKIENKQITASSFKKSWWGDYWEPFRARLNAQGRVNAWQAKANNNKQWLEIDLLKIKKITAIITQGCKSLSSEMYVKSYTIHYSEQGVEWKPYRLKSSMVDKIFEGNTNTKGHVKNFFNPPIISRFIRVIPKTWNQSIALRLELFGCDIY
Assay: prothrombinase inhibition assay (plasma free system, Chromozym TH)
Format: biochemical
Settings: Table 6, monoamidine
OBSERVATION TYPE: IC50 (nM)

(I) N=C(N)c1ccc2ccc(CN3C(=O)COc4ccc(-c5ccccc5S(N)(=O)=O)cc43)cc2c1
(II) N=C(N)c1cccc(-c2cccc(CN3C(=O)COc4ccc(-c5ccccc5S(N)(=O)=O)cc43)c2)c1
Which item exceeds the other in IC50, I or II ? Return value: the label identifying the chosen record.
II

---

Target: prothrombinase complex (Homo sapiens, UniProt P00742)
Assay: prothrombinase inhibition assay (plasma free system, Chromozym TH)
Assay type: biochemical
Conditions: Table 5
OBSERVATION TYPE: IC50 (nM)

Known results for compounds:
{"columns": ["SMILES INPUT", "TESTED SYSTEM", "OBSERVATION TYPE", "REPORTED MEASUREMENT"],
 "data": [
  ["N=C(N)c1ccc2ccc(CN3C(=O)COc4cc(NS(=O)(=O)c5ccc6cc(Br)ccc6c5)ccc43)cc2c1", "prothrombinase complex (Homo sapiens, UniProt P00742)", "IC50", 98000],
  ["N=C(N)c1ccc2ccc(CN3C(=O)COc4cc(NS(=O)(=O)c5ccccc5)ccc43)cc2c1", "prothrombinase complex (Homo sapiens, UniProt P00742)", "IC50", 55200],
  ["N=C(N)c1ccc(C(=O)Nc2ccc3c(c2)OCC(=O)N3Cc2ccc3ccc(C(=N)N)cc3c2)cc1", "prothrombinase complex (Homo sapiens, UniProt P00742)", "IC50", 67500]
]}

(I) N=C(N)c1ccc2ccc(CN3C(=O)COc4cc(NS(=O)(=O)c5cccc6ncccc56)ccc43)cc2c1
(II) COc1ccc(S(=O)(=O)Nc2ccc3c(c2)OCC(=O)N3Cc2ccc3ccc(C(=N)N)cc3c2)cc1
Which record shows the lower IC50: the first, I , or the second, II ? I would appreciate it if you answered with the label of your choice.
II
